- System: NCI-H460 lung
- runDescription: NCI-60 one-dose screen, 48 h
- conditionDetails: 10 µM unless noted
- Description: Growth inhibition of the NCI-H460 human Non-Small Cell Lung tumor cell line is measured as a screen for anti-cancer activity. Cells are grown in 96 well plates and exposed to the test compound for 48 hours. Compounds are tested at a single concentration, which is 10^-5 M for most compounds. The reported endpoint is percent growth (GI% or GIPRCNT), where numbers from 0 - 100% represent growth inhibition, and numbers from -100% - 0 represent cell death. […]
About 83,000 compounds went through this panel and 20% of them were active in at least one assay; those are over-represented in the sample as a whole. The source made the active and inactive calls. Rule for the calls: active = growth percent below 10; inactive = the rest.
Labels: active, inactive

[
  {
    "compound": "NS(=O)(=O)c1ccc(-n2cc(-c3cccc(NC(=O)c4ccc(Cl)c(C(F)(F)F)c4)c3)nn2)cc1",
    "categoryLabel": "inactive"
  },
  {
    "compound": "CC(C)C(C(=O)O)n1c(O)c(/C=C2/C=c3cc4c(cc3=NC2=O)OCO4)sc1=S (stereo not drawn)",
    "categoryLabel": "inactive"
  },
  {
    "compound": "S=C(Nc1ccccc1)Nc1ccc(OCc2nc3ccccc3[nH]2)cc1",
    "categoryLabel": "inactive"
  },
  {
    "compound": "CN(C)CCOc1ccc(C(=O)C2[C@H](c3ccc(Cl)cc3)[C@@H](c3ccccc3)NC23C(=O)Nc2ccc(Br)cc23)cc1 (stereo partly drawn)",
    "categoryLabel": "active"
  },
  {
    "compound": "C#CCOc1cc(N(CC)CC)ccc1C(C(=O)NC(C)(C)C)N(C(=O)C1CCc2cc(F)ccc2O1)c1ccc(F)cc1 (stereo not drawn)",
    "categoryLabel": "inactive"
  },
  {
    "compound": "O=c1[nH]c2ccc(Cl)cc2cc1CSc1nccc(-c2ccc(Cl)cc2)n1",
    "categoryLabel": "inactive"
  },
  {
    "compound": "CN(C)c1ccnc(CNCCSC2(c3ccccc3)c3ccccc3C=Cc3ccccc32)c1",
    "categoryLabel": "active"
  },
  {
    "compound": "CC(C)c1sc(NC(=O)c2cc(NC(=O)c3cc(NC(=O)c4nccn4C)cn3C)cn2C)nc1C(=O)NCCCN(C)C",
    "categoryLabel": "inactive"
  },
  {
    "compound": "CN(C)c1nc(NCCNS(=O)(=O)c2ccc(C(=O)/C=C/c3ccc(C(F)(F)F)cc3)cc2)nc(Nc2ccc(F)cc2)n1",
    "categoryLabel": "active"
  },
  {
    "compound": "Cc1sc2c(c1C)C(c1ccc(Cl)cc1)=N[C@@H](CC(=O)NCCCCCNC(=O)COc1ccc(C3CCC(=O)NC3=O)cc1)c1nnc(C)n1-2 (stereo partly drawn)",
    "categoryLabel": "inactive"
  },
  {
    "compound": "CC(=O)Oc1ccc(/C=C/C(=O)N[C@@H](Cc2ccccc2)C(O)C(=O)NCc2ccccc2)cc1OC(C)=O (stereo partly drawn)",
    "categoryLabel": "inactive"
  },
  {
    "compound": "N/C(=N\\c1nc2ccccc2s1)NC(=O)Nc1ccc(Cl)cc1Cl",
    "categoryLabel": "active"
  },
  {
    "compound": "CC1=C(C(=O)OC(C)C)C(c2cccc(O)c2)NC(=S)N1 (stereo not drawn)",
    "categoryLabel": "inactive"
  },
  {
    "compound": "COc1cc(CNC(=O)/C=C/c2ccc3c(c2)OCO3)ccc1OCc1cn(-c2cccc(C(F)(F)F)c2)nn1",
    "categoryLabel": "inactive"
  },
  {
    "compound": "Cn1cc(-c2nnc(N)nc2-c2c[nH]c3ccccc23)c2cccnc21",
    "categoryLabel": "inactive"
  },
  {
    "compound": "O=c1oc2ccccc2cc1-c1csc(N=Nc2c(O)[nH]c3ccc(Cl)cc23)n1",
    "categoryLabel": "inactive"
  },
  {
    "compound": "C#CCOc1ccc(/C=N/Nc2nc(-c3cc4cc(OC)ccc4oc3=O)cs2)cc1OC",
    "categoryLabel": "active"
  },
  {
    "compound": "O=c1onc(-c2cc3ccccc3nc2Cl)n1-c1cccc2ccccc12",
    "categoryLabel": "inactive"
  }
]
